Please go through the items and note down their RLM.
Assay: Microsomal stability assay, rat liver microsomes
Conditions: rat liver microsomes
Response body: numeric value in µL/min/mg, unit text excluded.

Problem: What value of measured RLM is listed for CNc1nc(CC(C)C)cc2c1OC1(CCC1)C[C@@H]2NC[C@@H](O)[C@H](Cc1ccc2c(c1)OCO2)NC(=O)[C@@H](C)OC [compound 680] ?
Solution: 317

Problem: Item under review: COCC(=O)N[C@@H](Cc1cccc(F)c1)[C@H](O)CN[C@H]1CC2(CCC2)Oc2c1cc(CC(C)(C)F)cc2-n1ccnc1 [compound 588] . Reported RLM?
Solution: 74

Problem: Reported RLM for COCC(=O)N[C@@H](Cc1cccc(F)c1)[C@H](O)CN[C@H]1CC2(CCC2)Oc2c(-c3ccncc3F)cc(CC(C)(C)C)cc21 [compound 668] : what is it?
Solution: 197

###

Exercise: state measured RLM for each of the compounds provided.
Test: Microsomal stability assay, rat liver microsomes;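 also: rat liver microsomes (0.25 mg/mL) with about 1 µM compound plus 1 mM NADPH, pH 7.4, 37 °C for 30 min, parent left measured by LC-MS/MS against 0 min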
Conditions: rat liver microsomes

Problem: I'd like to know its RLM. The compound in question is CO[C@H](C)C(=O)N[C@@H](Cc1cc(F)cc(-c2nccs2)c1)[C@H](O)CN[C@H]1CC2(CCC2)Oc2c1cc(CC(C)C)nc2Cl
Solution: 137 µL/min/mg

Problem: Entry CO[C@H](C)C(=O)N[C@@H](Cc1cc(F)cc(-c2nccs2)c1)[C@H](O)CN[C@H]1CC2(CCC2)Oc2cnc(CC(C)(C)F)cc21 has what RLM?
Solution: 152 µL/min/mg

Problem: So what does the record say about RLM for CC(=O)N[C@@H](Cc1ccc(F)c(-c2ccncc2)c1)[C@H](O)CN[C@H]1CC2(CCC2)Oc2ncc(CC(C)(C)C)cc21 ?
Solution: 78 µL/min/mg

Problem: Request the reported RLM associated with CO[C@H](C)C(=O)N[C@@H](Cc1cc(F)cc(F)c1)[C@H](O)CN[C@H]1CC2(CCC2)Oc2c(-c3cncn3C)cc(CC(C)C)cc21
Solution: 161 µL/min/mg

Problem: What value of measured RLM is listed for CO[C@H](C)C(=O)N[C@@H](Cc1cc(F)cc(F)c1)[C@H](O)CN[C@H]1CC2(CCC2)Oc2cnc(CC(C)C)cc21 ?
Solution: 399 µL/min/mg

Problem: Fill blank: measured RLM of the compound C#Cc1cc(F)cc(C[C@H](NC(C)=O)[C@H](O)CN[C@H]2CC3(CCC3)Oc3ncc(CC(C)(C)C)cc32)c1 is ____.
Solution: 58 µL/min/mg

Problem: For the compound shown here, CC(C)(C)Cc1cnc2c(c1)[C@@H](NC[C@@H](O)[C@H](Cc1ccc(F)cc1)NC(=O)COC(F)F)CC1(CCC1)O2 , give the reported RLM.
Solution: 269 µL/min/mg

Problem: Entry CO[C@H](C)C(=O)N[C@@H](Cc1ccc(F)c(-c2nccs2)c1)[C@H](O)CN[C@H]1CC2(CCC2)Oc2ncc(CC(C)(C)C)cc21 has what RLM?
Solution: 53 µL/min/mg

Problem: Field request: RLM | item: CC(C)(C)Cc1cnc2c(c1)[C@@H](NC[C@@H](O)[C@H](Cc1ccc(F)cc1)NC(=O)[C@@H]1CN(Cc3ccccc3)CCO1)CC1(CCC1)O2
Solution: 399 µL/min/mg

Problem: What value of RLM has been reported for the following compound? COCC(=O)N[C@@H](Cc1cc(F)cc(F)c1)[C@H](O)CN[C@H]1CC2(CCC2)Oc2c1cc(CC(C)(C)C)nc2-c1nccn1C
Solution: 39 µL/min/mg

Problem: Using the record for CO[C@H](C)C(=O)N[C@@H](Cc1ccc(O)c(O)c1)[C@H](O)CN[C@H]1CC2(CCC2)Oc2ncc(CC(C)(C)C)cc21 , report its RLM.
Solution: 147 µL/min/mg

Problem: RLM lookup needed for COCC(=O)N[C@@H](Cc1cc(F)cc(F)c1)[C@H](O)CN[C@H]1CC(C)(C)Oc2c1cc(CC(C)C)c1c2OCO1 , thanks.
Solution: 179 µL/min/mg
